Entries and their pIC50
target: C-X-C chemokine receptor type 4 (Homo sapiens); experiment: Antagonist activity at CXCR4 in human Chem-1 cells assessed as inhibition of CXCL12-induced calcium flux; assay type: functional, cell-based
# pIC50 is unitless: minus log10 of the molar concentration; print number only

Here is how some molecules turned out for pIC50.
STRUCTURE	TARGET_SYSTEM	ASSAY_READOUT	TEST_VALUE
NCCCCN(C[C@@H]1CN(C(=O)c2ccco2)CCN1)[C@H]1CCCc2cccnc21	C-X-C chemokine receptor type 4 (Homo sapiens)	pIC50	7.46
NCCCCN(C[C@@H]1CN(Cc2ccccc2)CCN1)[C@H]1CCCc2cccnc21	C-X-C chemokine receptor type 4 (Homo sapiens)	pIC50	6.72
NCCCCN(C[C@@H]1CN(S(=O)(=O)c2ccccc2)CCN1)[C@H]1CCCc2cccnc21	C-X-C chemokine receptor type 4 (Homo sapiens)	pIC50	7.64
NCCCCN(C[C@@H]1CN(C(=O)c2ccccc2)CCN1)[C@H]1CCCc2cccnc21	C-X-C chemokine receptor type 4 (Homo sapiens)	pIC50	8.22

Consider now this further molecule.
Prompt line: Give its pIC50 value. Item: `NCCCCN(C[C@H]1CN(C(=O)c2ccccc2)CCN1)[C@H]1CCCc2cccnc21`
Response line: 8.70

----------
biological target: CYP2C19 (Homo sapiens); assay: Inhibition of human CYP2C19 at 1 uM; assay type: ADME
Sequence (P33261 whole entry): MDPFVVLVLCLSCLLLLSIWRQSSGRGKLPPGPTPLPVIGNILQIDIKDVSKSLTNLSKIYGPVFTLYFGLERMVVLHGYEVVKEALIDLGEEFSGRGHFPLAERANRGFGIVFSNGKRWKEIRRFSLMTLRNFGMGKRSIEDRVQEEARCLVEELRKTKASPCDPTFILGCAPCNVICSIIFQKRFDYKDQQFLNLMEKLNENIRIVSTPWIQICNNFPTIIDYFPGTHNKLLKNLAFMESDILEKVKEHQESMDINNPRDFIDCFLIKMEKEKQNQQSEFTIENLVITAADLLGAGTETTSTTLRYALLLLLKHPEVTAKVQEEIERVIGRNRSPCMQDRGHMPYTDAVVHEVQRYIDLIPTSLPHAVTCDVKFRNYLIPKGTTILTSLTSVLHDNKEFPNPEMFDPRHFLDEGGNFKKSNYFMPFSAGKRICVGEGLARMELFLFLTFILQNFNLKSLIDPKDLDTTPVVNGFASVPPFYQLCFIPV
Entries and their inhibition at 1 µM
# unit: % | format: bare number

MOLECULE	inhibition at 1 µM, %
NCCCCN(Cc1nc2ccccc2[nH]1)[C@H]1CCCc2cccnc21 [MAVORIXAFOR]	20
NCCCCN(C[C@@H]1CN(C(=O)c2ccccc2)CCN1)[C@H]1CCCc2cccnc21	2

Prompt line: Give its inhibition at 1 µM value. Item: `NCCCCN(C[C@@H]1CN(S(=O)(=O)c2ccccc2)CCN1)[C@H]1CCCc2cccnc21`
Response line: 2

----------
biological target: UniProt P10635; test: Inhibition of human CYP2D6 at 1 uM
Sequence (P10635 whole entry): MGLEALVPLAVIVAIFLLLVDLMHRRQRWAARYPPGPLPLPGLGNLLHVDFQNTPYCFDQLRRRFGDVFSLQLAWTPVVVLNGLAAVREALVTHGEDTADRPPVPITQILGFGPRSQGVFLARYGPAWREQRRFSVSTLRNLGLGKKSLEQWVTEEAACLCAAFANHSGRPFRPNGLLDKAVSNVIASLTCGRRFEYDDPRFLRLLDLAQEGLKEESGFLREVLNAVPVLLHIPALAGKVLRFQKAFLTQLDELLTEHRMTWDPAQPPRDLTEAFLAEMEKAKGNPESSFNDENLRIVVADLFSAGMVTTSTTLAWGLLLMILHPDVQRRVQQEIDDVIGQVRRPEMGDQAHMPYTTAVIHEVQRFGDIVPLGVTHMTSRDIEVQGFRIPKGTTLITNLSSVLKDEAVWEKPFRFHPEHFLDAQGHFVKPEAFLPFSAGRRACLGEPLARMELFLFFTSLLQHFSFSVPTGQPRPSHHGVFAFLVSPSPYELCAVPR
Entries and their inhibition at 1 µM
# unit: % | format: bare number

STRUCTURE	inhibition at 1 µM [%]
NCCCCN(C[C@@H]1CN(C(=O)c2ccccc2)CCN1)[C@H]1CCCc2cccnc21	19
NCCCCN(C[C@@H]1CN(S(=O)(=O)c2ccccc2)CCN1)[C@H]1CCCc2cccnc21	41

Consider now this further compound.
Prompt line: Param readout = inhibition at 1 µM; param system = UniProt P10635; param query = `NCCCCN(Cc1nc2ccccc2[nH]1)[C@H]1CCCc2cccnc21` ; response: value
Response line: 100

----------
molecular target: UniProt P08684; experiment: Inhibition of human CYP3A4 at 1 uM
Sequence (P08684 whole entry): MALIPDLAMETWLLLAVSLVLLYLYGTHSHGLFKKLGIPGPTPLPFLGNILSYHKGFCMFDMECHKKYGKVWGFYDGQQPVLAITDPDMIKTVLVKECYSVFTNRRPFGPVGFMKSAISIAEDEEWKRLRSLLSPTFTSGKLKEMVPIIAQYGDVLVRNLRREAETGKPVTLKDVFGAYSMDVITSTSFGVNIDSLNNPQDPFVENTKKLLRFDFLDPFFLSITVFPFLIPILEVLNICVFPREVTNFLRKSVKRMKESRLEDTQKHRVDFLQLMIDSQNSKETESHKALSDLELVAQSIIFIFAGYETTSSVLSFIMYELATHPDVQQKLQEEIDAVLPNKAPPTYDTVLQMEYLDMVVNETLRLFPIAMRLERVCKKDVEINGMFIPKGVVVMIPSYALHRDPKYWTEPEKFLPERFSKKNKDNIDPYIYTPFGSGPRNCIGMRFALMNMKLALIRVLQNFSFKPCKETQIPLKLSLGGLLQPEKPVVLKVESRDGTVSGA
ASSAY_READOUT: inhibition at 1 µM (%)
# unit: % | format: bare number

STRUCTURE	TEST_VALUE
NCCCCN(C[C@@H]1CN(C(=O)c2ccccc2)CCN1)[C@H]1CCCc2cccnc21	0

Consider now this further compound.
Prompt line: Give its inhibition at 1 µM value. Item: `NCCCCN(C[C@@H]1CN(S(=O)(=O)c2ccccc2)CCN1)[C@H]1CCCc2cccnc21`
Response line: 0

----------
target: C-X-C chemokine receptor type 4 (Homo sapiens, UniProt P61073)
Sequence (P61073 whole entry): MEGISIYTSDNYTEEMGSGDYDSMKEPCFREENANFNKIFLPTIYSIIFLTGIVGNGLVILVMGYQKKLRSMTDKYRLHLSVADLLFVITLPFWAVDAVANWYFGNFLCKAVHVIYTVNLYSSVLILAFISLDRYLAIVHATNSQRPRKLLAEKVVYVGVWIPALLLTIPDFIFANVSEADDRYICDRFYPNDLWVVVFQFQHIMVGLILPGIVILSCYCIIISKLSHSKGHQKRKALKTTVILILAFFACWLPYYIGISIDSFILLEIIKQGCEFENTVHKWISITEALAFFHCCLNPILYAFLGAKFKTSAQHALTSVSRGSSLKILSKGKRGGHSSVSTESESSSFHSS
ASSAY_READOUT: IC50
Form entry: enter the amount, then its unit.

Prompt line: Param readout = IC50; param system = C-X-C chemokine receptor type 4 (Homo sapiens, UniProt P61073); param query = `NCCCCN(C[C@@H]1CN(Cc2ccccc2)CCN1)[C@H]1CCCc2cccnc21` ; response: value
Response line: 2920 nM
